Each record here notes measured inhibition.
- system: MAP kinase-activated protein kinase 2 (Homo sapiens) (UniProt P49137);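 note: values are mean inhibition from the GSK PKIS screen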
- Sequence (P49137 whole entry, looked up): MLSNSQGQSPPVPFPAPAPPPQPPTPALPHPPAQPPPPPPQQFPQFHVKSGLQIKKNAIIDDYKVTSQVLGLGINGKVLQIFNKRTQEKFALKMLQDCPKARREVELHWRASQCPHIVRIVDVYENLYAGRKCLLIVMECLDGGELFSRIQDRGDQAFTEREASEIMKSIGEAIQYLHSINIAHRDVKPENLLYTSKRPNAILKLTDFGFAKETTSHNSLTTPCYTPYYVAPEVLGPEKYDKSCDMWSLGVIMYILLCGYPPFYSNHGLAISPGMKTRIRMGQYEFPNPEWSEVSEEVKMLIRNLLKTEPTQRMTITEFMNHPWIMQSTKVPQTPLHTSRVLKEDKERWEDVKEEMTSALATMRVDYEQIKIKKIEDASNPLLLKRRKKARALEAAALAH
- condition_description: at 1 µM
recorded_metric: inhibition (%)

smiles_structure	recorded_metric	test_value
COc1cc2ncn(-c3cc(OCc4ccccc4S(C)(=O)=O)c(C#N)s3)c2cc1OC	inhibition	1.54
NS(=O)(=O)c1ccc(Nc2cc(-c3cccc(O)c3)n[nH]2)cc1	inhibition	2.79
CS(=O)(=O)Nc1cccc(-c2ccc3c(NC(=O)C4CC4)n[nH]c3c2)c1	inhibition	0.38
COC(=O)c1cncc(/C=C/c2c(C)cc(O)cc2C)c1	inhibition	2.28
COC(=O)Nc1nc2cc(Oc3ccc(NC(=O)Nc4cccc(Br)c4)cc3)ccc2[nH]1	inhibition	1.19
COc1ccc(-c2nn3ncccc3c2-c2ccnc(Nc3cccc(C(F)(F)F)c3)n2)cc1	inhibition	0.39
CN(C)c1cc2c(Nc3ccc4c(cnn4Cc4ccccc4)c3)ncnc2cn1	inhibition	1.29
CCS(=O)(=O)c1ccc(OC)c(Nc2nccc(N(C)c3ccc4c(C)n[nH]c4c3)n2)c1	inhibition	1.63
O=C1Nc2ccccc2/C1=C/Nc1ccc2[nH]c(=O)[nH]c2c1	inhibition	2.97
Cc1ccc2c(-c3ccnc(Nc4cccc(C(F)(F)F)c4)n3)c(-c3ccccc3)nn2n1	inhibition	-0.78
CN(c1ccc(NC(=O)Nc2ccc(OC(F)(F)F)cc2)cc1)c1ccnc(Nc2cccc(S(N)(=O)=O)c2)n1	inhibition	-0.37
Cc1cc(-c2ccccn2)cc(C)c1/C=C/c1cncc(-c2nn[nH]n2)c1	inhibition	2.74
NS(=O)(=O)c1ccc(N/N=C2\C(=O)Nc3ccc(Cl)cc32)cc1	inhibition	-0.73
COC(=O)c1ccc2c(c1)C(=Cc1cc(Br)c(O)c(Br)c1)C(=O)N2	inhibition	7.08
NS(=O)(=O)c1cccc(-c2cc3ccncc3cc2OCc2ccccc2)c1	inhibition	3.32
Nc1nccc(-c2c(-c3ccc(F)cc3)nn3cc(C(F)(F)F)ccc23)n1	inhibition	-1.14
Cc1nc(-c2ccccc2)n2nc(NCCCN3CCOCC3)ncc12	inhibition	2.01
CCS(=O)(=O)c1ccc(OC)c(Nc2ncc(-c3cccc(OC)c3)o2)c1	inhibition	0.67
NS(=O)(=O)c1ccc(-c2cc3ccncc3cc2OCc2ccccc2)cc1	inhibition	1.1
COc1cccc(-n2nc(C)c3c(N/N=C(\C)c4ccncc4)ncnc32)c1	inhibition	0.45
NC(=O)c1cccc(Nc2nccc(Nc3cccc(F)c3)n2)c1	inhibition	0.05

* * *

- system: Serine/threonine-protein kinase Chk2 (Homo sapiens) (UniProt O96017);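 note: reported value is the mean inhibition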
- Sequence (O96017 whole entry): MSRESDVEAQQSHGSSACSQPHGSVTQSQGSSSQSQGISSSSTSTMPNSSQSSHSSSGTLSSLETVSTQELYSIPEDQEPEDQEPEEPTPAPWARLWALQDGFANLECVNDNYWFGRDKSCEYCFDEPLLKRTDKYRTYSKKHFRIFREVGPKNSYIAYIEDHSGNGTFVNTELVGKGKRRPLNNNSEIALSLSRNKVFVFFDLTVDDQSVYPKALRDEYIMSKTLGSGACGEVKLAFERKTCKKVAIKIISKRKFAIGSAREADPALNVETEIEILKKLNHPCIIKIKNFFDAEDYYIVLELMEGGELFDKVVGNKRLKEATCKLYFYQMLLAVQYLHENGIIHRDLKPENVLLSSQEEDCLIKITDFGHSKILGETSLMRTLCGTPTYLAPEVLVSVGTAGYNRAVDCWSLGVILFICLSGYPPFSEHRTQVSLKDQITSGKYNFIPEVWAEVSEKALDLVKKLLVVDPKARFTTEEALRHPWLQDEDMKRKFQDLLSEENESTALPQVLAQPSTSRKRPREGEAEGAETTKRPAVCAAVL
- condition_description: at 1 µM
recorded_metric: inhibition (%)

compound	recorded_metric	test_value
COc1cccc(-n2ncc3c(N/N=C/c4ccc(C)cc4)ncnc32)c1	inhibition	2.47
Cc1ccc(C(=O)NC2CC2)cc1-c1ccc2[nH]ncc2c1	inhibition	-3.82
CCCN1CCCC(c2ccc(Nc3nc(Nc4cc(F)ccc4C(N)=O)c4cc[nH]c4n3)c(OC)c2)C1 (stereo not given)	inhibition	79.1
Cc1cc(-c2ccccn2)cc(C)c1/C=C/c1cncc(-c2nn[nH]n2)c1	inhibition	4.43
Nc1nccc(C#Cc2cncnc2Nc2ccc(OCc3cccc(F)c3)c(Cl)c2)n1	inhibition	5.77
COc1ccc(-c2nn3ncccc3c2-c2ccnc(Nc3cccc(C(F)(F)F)c3)n2)cc1	inhibition	1.61
Cc1ccc2c(c1)/C(=N/Nc1ccc(S(N)(=O)=O)cc1)C(=O)N2	inhibition	0.67
COC(=O)c1ccc2c(c1)C(=Cc1cc(Br)c(O)c(Br)c1)C(=O)N2	inhibition	20.6
CC(C)c1ccc(Nc2nccc(-c3cnn4ncccc34)n2)cc1	inhibition	3.38
CS(=O)(=O)CCNCc1nc(-c2ccc3ncnc(Nc4ccc(OCc5cccc(C(F)(F)F)c5)cc4)c3c2)cs1	inhibition	5.27
